In this section we review reported Activity values for a set of molecules.
Tested on: Escherichia coli
MEASUREMENT NOTES: Inhibition of Escherichia coli degP assessed as specific activity at 0.5 mM
Set-up: scale not given: the % may be the effect or the level left
Peptide text beside a SMILES is read from it.

MOLECULE: CSCC[C@H](NC(=O)[C@H](CCSC)NC(=O)[C@@H]1CCCN1C(=O)[C@H](CC(C)C)NC(=O)[C@@H](NC(=O)[C@H](CC(N)=O)NC(=O)[C@H](Cc1ccccc1)NC(=O)[C@@H](N)C(C)C)[C@@H](C)O)C(=O)NCC(=O)N[C@@H](CCCCN)C(=O)N[C@@H](C)C(=O)N[C@@H](CO)C(=O)N1CCC[C@H]1C(=O)N[C@H](C(=O)Nc1ccc([N+](=O)[O-])cc1)C(C)C (HELM PEPTIDE1{V.F.N.T.L.P.M.M.G.K.A.S.P.V.[O=[N+]([O-])c1ccc(N[*:1])cc1]}$$$$V2.0)
SIGN QUALIFIER: =
Activity [%]: 32

MOLECULE: N=C(N)NCCC[C@H](NC(=O)c1ccccc1)C(=O)Nc1ccc([N+](=O)[O-])cc1
SIGN QUALIFIER: <
Activity [%]: 1

----------
STUDY SYSTEM: Prothrombin (Homo sapiens)
MEASUREMENT NOTES: Inhibition of thrombin assessed as residual proteolytic activity at 0.5 mM
Peptide text beside a SMILES is read from it.
MEASUREMENT LABEL: Activity (%)

COMPOUND: CSCC[C@H](NC(=O)[C@@H]1CCCN1C(=O)[C@@H](N)CO)C(=O)N[C@@H](Cc1ccccc1)C(=O)N[C@@H](CCCCN)C(=O)NCC(=O)N[C@H](C(=O)CCl)C(C)C (HELM PEPTIDE1{S.P.M.F.K.G.V.[ClC[*:1]]}$$$$V2.0)
UNIT: %
TEST RESULT: 96
//
COMPOUND: CSCC[C@H](NC(=O)[C@H](CCSC)NC(=O)[C@@H]1CCCN1)C(=O)NCC(=O)N[C@@H](CCCCN)C(=O)N[C@@H](C)C(=O)N[C@@H](CO)C(=O)N1CCC[C@H]1C(=O)N[C@H](C(=O)CCl)C(C)C (HELM PEPTIDE1{P.M.M.G.K.A.S.P.V.[ClC[*:1]]}$$$$V2.0)
UNIT: %
TEST RESULT: 122
//
COMPOUND: CSCC[C@H](NC(=O)[C@H](CCSC)NC(=O)[C@@H]1CCCN1C(=O)[C@H](CC(C)C)NC(=O)[C@@H](NC(=O)[C@H](CC(N)=O)NC(=O)[C@H](Cc1ccccc1)NC(=O)[C@@H](NC(=O)[C@@H]1CCCN1)C(C)C)[C@@H](C)O)C(=O)NCC(=O)N[C@@H](CCCCN)C(=O)N[C@@H](C)C(=O)N[C@@H](CO)C(=O)N1CCC[C@H]1C(=O)N[C@H](C(=O)CCl)C(C)C (HELM PEPTIDE1{P.V.F.N.T.L.P.M.M.G.K.A.S.P.V.[ClC[*:1]]}$$$$V2.0)
UNIT: %
TEST RESULT: 101
//
COMPOUND: CC[C@H](C)[C@H](N)C(=O)N[C@@H](Cc1c[nH]c2ccccc12)C(=O)N[C@@H](CC(N)=O)C(=O)N[C@H](C(=O)N[C@@H](CC(C)C)C(=O)N[C@@H](CC(N)=O)C(=O)N[C@@H](CO)C(=O)NCC(=O)N[C@@H](CCCNC(=N)N)C(=O)N[C@H](C(=O)N[C@H](C(=O)N1CCC[C@H]1C(=O)NCC(=O)N[C@H](C(=O)NCC(=O)N[C@@H](Cc1cnc[nH]1)C(=O)N[C@@H](C)C(=O)CCl)[C@@H](C)O)C(C)C)C(C)C)[C@@H](C)O (HELM PEPTIDE1{I.W.N.T.L.N.S.G.R.V.V.P.G.T.G.H.A.[ClC[*:1]]}$$$$V2.0)
UNIT: %
TEST RESULT: 98
//
COMPOUND: CSCC[C@H](NC(=O)[C@H](CCSC)NC(=O)[C@@H]1CCCN1C(=O)[C@H](CC(C)C)NC(=O)[C@@H](NC(=O)[C@H](CC(N)=O)NC(=O)[C@H](Cc1ccccc1)NC(=O)[C@@H](N)C(C)C)[C@@H](C)O)C(=O)NCC(=O)N[C@@H](CCCCN)C(=O)N[C@@H](C)C(=O)N[C@@H](CO)C(=O)N1CCC[C@H]1C(=O)N[C@H](C(=O)CCl)C(C)C (HELM PEPTIDE1{V.F.N.T.L.P.M.M.G.K.A.S.P.V.[ClC[*:1]]}$$$$V2.0)
UNIT: %
TEST RESULT: 102
//
COMPOUND: CC(C)[C@H](NC(=O)[C@H](CCCNC(=N)N)NC(=O)CNC(=O)[C@@H](N)CO)C(=O)N[C@H](C(=O)N1CCC[C@H]1C(=O)NCC(=O)N[C@@H](Cc1ccc(O)cc1)C(=O)NCC(=O)N[C@@H](Cc1cnc[nH]1)C(=O)N[C@@H](C)C(=O)CCl)C(C)C (HELM PEPTIDE1{S.G.R.V.V.P.G.Y.G.H.A.[ClC[*:1]]}$$$$V2.0)
UNIT: %
TEST RESULT: 131

----------
// reported Activity per item
MEASUREMENT NOTES: Inhibition of elastase assessed as specific activity at 0.5 mM
Set-up: scale not given: the % may be the effect or the level left
Peptide text beside a SMILES is read from it.

MOLECULE: N=C(N)NCCC[C@H](NC(=O)c1ccccc1)C(=O)Nc1ccc([N+](=O)[O-])cc1
UNIT: %
SIGN QUALIFIER: <
Activity: 1
--
MOLECULE: CC(C)[C@H](NC(=O)CNC(=O)CNC(=O)[C@H](CC(=O)O)NC(=O)[C@@H](NC(=O)[C@@H](N)CO)[C@@H](C)O)C(=O)Nc1ccc([N+](=O)[O-])cc1 (HELM PEPTIDE1{S.T.D.G.G.V.[O=[N+]([O-])c1ccc(N[*:1])cc1]}$$$$V2.0)
UNIT: %
SIGN QUALIFIER: =
Activity: 5
--
MOLECULE: CC(C)[C@H](NC(=O)[C@@H]1CCCN1C(=O)[C@@H](NC(=O)[C@H](C)NC(=O)CNC(=O)[C@H](CO)NC(=O)CNC(=O)[C@H](CO)NC(=O)[C@H](CC(N)=O)NC(=O)[C@H](CCCCN)NC(=O)CNC(=O)[C@@H](N)CCCCN)[C@@H](C)O)C(=O)Nc1ccc([N+](=O)[O-])cc1 (HELM PEPTIDE1{K.G.K.N.S.G.S.G.A.T.P.V.[O=[N+]([O-])c1ccc(N[*:1])cc1]}$$$$V2.0)
UNIT: %
SIGN QUALIFIER: =
Activity: 74

----------
Listing of entries alongside the reported Activity.
MEASUREMENT NOTES: Inhibition of chymotrypsin assessed as specific activity at 0.5 mM
Set-up: scale not given: the % may be the effect or the level left
Peptide text beside a SMILES is read from it.

COMPOUND: CC(C)C[C@H](NC(=O)CN)C(=O)N[C@@H](C)C(=O)N[C@H](C(=O)NCC(=O)N[C@@H](CC(N)=O)C(=O)N[C@H](C(=O)N[C@@H](CO)C(=O)N[C@H](C(=O)N[C@@H](C)C(=O)N[C@@H](CCC(=O)O)C(=O)N[C@@H](CC(C)C)C(=O)N[C@@H](CCC(N)=O)C(=O)N[C@@H](CC(=O)O)C(=O)N[C@@H](C)C(=O)N[C@H](C(=O)N1CCC[C@H]1C(=O)N[C@@H](C)C(=O)Nc1ccc([N+](=O)[O-])cc1)[C@H](C)O)[C@@H](C)O)C(C)C)[C@@H](C)O
Activity: 26%
--
COMPOUND: CSCC[C@H](NC(=O)[C@H](CCSC)NC(=O)[C@@H]1CCCN1C(=O)[C@H](CC(C)C)NC(=O)[C@@H](NC(=O)[C@H](CC(N)=O)NC(=O)[C@H](Cc1ccccc1)NC(=O)[C@@H](NC(=O)[C@@H]1CCCN1)C(C)C)[C@H](C)O)C(=O)NCC(=O)N[C@@H](CCCCN)C(=O)N[C@@H](C)C(=O)N[C@@H](CO)C(=O)N1CCC[C@H]1C(=O)N[C@H](C(=O)Nc1ccc([N+](=O)[O-])cc1)C(C)C
Activity: 3%
--
COMPOUND: CC(C)[C@H](NC(=O)CNC(=O)CNC(=O)[C@H](CC(=O)O)NC(=O)[C@@H](NC(=O)[C@@H](N)CO)[C@@H](C)O)C(=O)Nc1ccc([N+](=O)[O-])cc1 (HELM PEPTIDE1{S.T.D.G.G.V.[O=[N+]([O-])c1ccc(N[*:1])cc1]}$$$$V2.0)
Activity: < 1%
--
COMPOUND: CSCC[C@H](NC(=O)[C@@H]1CCCN1C(=O)[C@@H](N)CO)C(=O)N[C@@H](Cc1ccccc1)C(=O)N[C@@H](CCCCN)C(=O)NCC(=O)N[C@H](C(=O)Nc1ccc([N+](=O)[O-])cc1)C(C)C (HELM PEPTIDE1{S.P.M.F.K.G.V.[O=[N+]([O-])c1ccc(N[*:1])cc1]}$$$$V2.0)
Activity: < 1%
--
COMPOUND: CC(C)[C@H](NC(=O)[C@H](CCCNC(=N)N)NC(=O)CNC(=O)[C@@H](N)CO)C(=O)N[C@H](C(=O)N1CCC[C@H]1C(=O)NCC(=O)N[C@@H](Cc1ccc(O)cc1)C(=O)NCC(=O)N[C@@H](Cc1cnc[nH]1)C(=O)N[C@@H](C)C(=O)Nc1ccc([N+](=O)[O-])cc1)C(C)C (HELM PEPTIDE1{S.G.R.V.V.P.G.Y.G.H.A.[O=[N+]([O-])c1ccc(N[*:1])cc1]}$$$$V2.0)
Activity: < 1%
--
COMPOUND: CSCC[C@H](NC(=O)[C@@H]1CCCN1C(=O)[C@@H](N)CC(=O)O)C(=O)N[C@@H](Cc1ccccc1)C(=O)N[C@@H](CCCCN)C(=O)N[C@@H](CC(C)C)C(=O)N[C@H](C(=O)Nc1ccc([N+](=O)[O-])cc1)C(C)C (HELM PEPTIDE1{D.P.M.F.K.L.V.[O=[N+]([O-])c1ccc(N[*:1])cc1]}$$$$V2.0)
Activity: < 1%
--
COMPOUND: CC(C)[C@H](NC(=O)[C@H](CCC(=O)O)NC(=O)[C@H](Cc1ccc(O)cc1)NC(=O)CNC(=O)[C@H](CO)NC(=O)[C@H](CC(=O)O)NC(=O)[C@H](Cc1cnc[nH]1)NC(=O)[C@H](CCCNC(=N)N)NC(=O)[C@H](Cc1ccccc1)NC(=O)[C@H](CCC(=O)O)NC(=O)[C@H](C)NC(=O)[C@H](CC(=O)O)NC(=O)[C@@H](N)CO)C(=O)Nc1ccc([N+](=O)[O-])cc1
Activity: < 1%
--
COMPOUND: CC(C)[C@H](NC(=O)[C@@H]1CCCN1C(=O)[C@@H](NC(=O)[C@H](C)NC(=O)CNC(=O)[C@H](CO)NC(=O)CNC(=O)[C@H](CO)NC(=O)[C@H](CC(N)=O)NC(=O)[C@H](CCCCN)NC(=O)CNC(=O)[C@@H](N)CCCCN)[C@@H](C)O)C(=O)Nc1ccc([N+](=O)[O-])cc1 (HELM PEPTIDE1{K.G.K.N.S.G.S.G.A.T.P.V.[O=[N+]([O-])c1ccc(N[*:1])cc1]}$$$$V2.0)
Activity: 5%
--
COMPOUND: CSCC[C@H](NC(=O)[C@H](CCSC)NC(=O)[C@@H]1CCCN1)C(=O)NCC(=O)N[C@@H](CCCCN)C(=O)N[C@@H](C)C(=O)N[C@@H](CO)C(=O)N1CCC[C@H]1C(=O)N[C@H](C(=O)Nc1ccc([N+](=O)[O-])cc1)C(C)C (HELM PEPTIDE1{P.M.M.G.K.A.S.P.V.[O=[N+]([O-])c1ccc(N[*:1])cc1]}$$$$V2.0)
Activity: < 1%
--
COMPOUND: CC(C)C[C@H](NC(=O)CNC(=O)[C@H](C)NC(=O)CNC(=O)[C@@H]1CCCN1C(=O)[C@@H](NC(=O)[C@H](CO)NC(=O)[C@H](C)NC(=O)CNC(=O)[C@@H](N)CCCCN)C(C)C)C(=O)N[C@H](C(=O)Nc1ccc([N+](=O)[O-])cc1)C(C)C (HELM PEPTIDE1{K.G.A.S.V.P.G.A.G.L.V.[O=[N+]([O-])c1ccc(N[*:1])cc1]}$$$$V2.0)
Activity: < 1%
--
COMPOUND: N=C(N)NCCC[C@H](NC(=O)c1ccccc1)C(=O)Nc1ccc([N+](=O)[O-])cc1
Activity: < 1%
--
COMPOUND: CSCC[C@H](NC(=O)[C@H](CCSC)NC(=O)[C@@H]1CCCN1C(=O)[C@H](CC(C)C)NC(=O)[C@@H](NC(=O)[C@H](CC(N)=O)NC(=O)[C@H](Cc1ccccc1)NC(=O)[C@@H](N)C(C)C)[C@@H](C)O)C(=O)NCC(=O)N[C@@H](CCCCN)C(=O)N[C@@H](C)C(=O)N[C@@H](CO)C(=O)N1CCC[C@H]1C(=O)N[C@H](C(=O)Nc1ccc([N+](=O)[O-])cc1)C(C)C (HELM PEPTIDE1{V.F.N.T.L.P.M.M.G.K.A.S.P.V.[O=[N+]([O-])c1ccc(N[*:1])cc1]}$$$$V2.0)
Activity: 8%
